Recorded measurements of Selectivity v. Coll-3, one per entry
Molecular target: stromelysin 1 (UniProt P08254 100-477, limits assumed)
Sequence (P08254 100-477 limits assumed): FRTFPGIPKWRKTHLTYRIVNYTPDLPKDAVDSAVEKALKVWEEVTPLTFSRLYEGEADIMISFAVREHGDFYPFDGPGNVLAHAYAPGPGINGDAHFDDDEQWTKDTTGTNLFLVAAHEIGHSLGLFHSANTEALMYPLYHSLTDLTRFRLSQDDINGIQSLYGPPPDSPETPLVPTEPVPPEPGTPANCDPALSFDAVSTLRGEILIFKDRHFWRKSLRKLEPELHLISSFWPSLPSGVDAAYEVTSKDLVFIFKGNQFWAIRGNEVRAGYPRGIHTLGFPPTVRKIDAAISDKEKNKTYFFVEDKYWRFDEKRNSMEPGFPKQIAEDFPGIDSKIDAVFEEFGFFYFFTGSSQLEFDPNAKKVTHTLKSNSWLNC
Test: cell-based or functional assay
*1 amine or outer side, *2 acyl side, *3 side chain or, on linkers, in order; H or OH if unused. [ ]: non-standard residue; d: D form. The star is where a group is joined. Dnp = O=[N+]([O-])c1ccc(*)c([N+](=O)[O-])c1; C(Me) = CSC[C@H](N[*:1])C(=O)[*:2]
API: value field is a number in unitless; no unit string.

Dnp-GPSELKG-NH2 (SMILES CC(C)C[C@H](NC(=O)[C@H](CCC(=O)O)NC(=O)[C@H](CO)NC(=O)[C@@H]1CCCN1C(=O)CNc1ccc([N+](=O)[O-])cc1[N+](=O)[O-])C(=O)N[C@@H](CCCCN)C(=O)NCC(N)=O) [Dnp-GPSELKG-NH2]: 831
Dnp-GPLPFRV[C(Me)]-NH2 (SMILES CSC[C@H](NC(=O)[C@@H](NC(=O)[C@H](CCCNC(=N)N)NC(=O)[C@H](Cc1ccccc1)NC(=O)[C@@H]1CCCN1C(=O)[C@H](CC(C)C)NC(=O)[C@@H]1CCCN1C(=O)CNc1ccc([N+](=O)[O-])cc1[N+](=O)[O-])C(C)C)C(N)=O) [Dnp-GPLPFRVC(Me)-NH2]: 332
Dnp-VTPYNMRG-NH2 (SMILES CSCC[C@H](NC(=O)[C@H](CC(N)=O)NC(=O)[C@H](Cc1ccc(O)cc1)NC(=O)[C@@H]1CCCN1C(=O)[C@@H](NC(=O)[C@@H](Nc1ccc([N+](=O)[O-])cc1[N+](=O)[O-])C(C)C)[C@@H](C)O)C(=O)N[C@@H](CCCNC(=N)N)C(=O)NCC(N)=O) [Dnp-VTPYNMRG-NH2]: 1000
Dnp-GPINLHG-NH2 (SMILES CC[C@H](C)[C@H](NC(=O)[C@@H]1CCCN1C(=O)CNc1ccc([N+](=O)[O-])cc1[N+](=O)[O-])C(=O)N[C@@H](CC(N)=O)C(=O)N[C@@H](CC(C)C)C(=O)N[C@@H](Cc1c[nH]cn1)C(=O)NCC(N)=O) [Dnp-GPINLHG-NH2]: 1110
Dnp-GPAPFRG[C(Me)]-NH2 (SMILES CSC[C@H](NC(=O)CNC(=O)[C@H](CCCNC(=N)N)NC(=O)[C@H](Cc1ccccc1)NC(=O)[C@@H]1CCCN1C(=O)[C@H](C)NC(=O)[C@@H]1CCCN1C(=O)CNc1ccc([N+](=O)[O-])cc1[N+](=O)[O-])C(N)=O) [Dnp-GPAPFRGC(Me)-NH2]: 488

query: Field request: Selectivity v. Coll-3 | item: Dnp-GPAPFRV[C(Me)]-NH2 (SMILES CSC[C@H](NC(=O)[C@@H](NC(=O)[C@H](CCCNC(=N)N)NC(=O)[C@H](Cc1ccccc1)NC(=O)[C@@H]1CCCN1C(=O)[C@H](C)NC(=O)[C@@H]1CCCN1C(=O)CNc1ccc([N+](=O)[O-])cc1[N+](=O)[O-])C(C)C)C(N)=O) [Dnp-GPAPFRVC(Me)-NH2]
result: 448

query: Field request: Selectivity v. Coll-3 | item: Dnp-GPSGIHV-NH2 (SMILES CC[C@H](C)[C@H](NC(=O)CNC(=O)[C@H](CO)NC(=O)[C@@H]1CCCN1C(=O)CNc1ccc([N+](=O)[O-])cc1[N+](=O)[O-])C(=O)N[C@@H](Cc1c[nH]cn1)C(=O)N[C@H](C(N)=O)C(C)C) [Dnp-GPSGIHV-NH2]
result: 35700
